- System: osteoblasts
- TEST: Assay of influences on osteoblasts: alkaline phosphatase (ALP) activity in cultured goldfish scales
- Type: cell-based
- MEASUREMENT CONTEXT: indole derivative 10^−4 M; scales cultured at 15° C. for 6 hours; control 6.00-6.17 (per table)
Catalogue of ALP activity, amount of paranitrophenol produced readings, one per entry.

These recorded examples may help you get a feel for the data.
What is its ALP activity, amount of paranitrophenol produced for osteoblasts? Entry: COc1c(Br)cc2c(c1Br)c(CCNC(C)=O)c(Br)n2Cc1ccccc1
7.77 ± 0.37 nmol/mg of scales/hr

What is its ALP activity, amount of paranitrophenol produced for osteoblasts? Entry: C#CCn1c(Br)c(CCNC(C)=O)c2c(Br)c(OC)c(Br)cc21
7.55 ± 0.76 nmol/mg of scales/hr

What is its ALP activity, amount of paranitrophenol produced for osteoblasts? Entry: COc1ccc2[nH]c(Br)c(CCNC(C)=O)c2c1
5.72 ± 0.47 nmol/mg of scales/hr

What is its ALP activity, amount of paranitrophenol produced for osteoblasts? Entry: COc1ccc2[nH]cc(CCNC(C)=O)c2c1 [Melatonin, N-acetyl-5-methoxytryptamine, reference compound]
5.19 ± 0.36 nmol/mg of scales/hr

What is its ALP activity, amount of paranitrophenol produced for osteoblasts? Entry: COc1c(Br)cc2[nH]c(Br)c(CCNC(C)=O)c2c1Br
6.00 ± 0.38 nmol/mg of scales/hr

What is its ALP activity, amount of paranitrophenol produced for osteoblasts? Entry: C=CCn1c(Br)c(CCNC(C)=O)c2c(Br)c(OC)c(Br)cc21
6.44 ± 0.44 nmol/mg of scales/hr

Let us move to another entry and its ALP activity, amount of paranitrophenol produced.
What is its ALP activity, amount of paranitrophenol produced for osteoblasts? Entry: COc1c(Br)c(Br)c2[nH]c(Br)c(CCNC(C)=O)c2c1Br
6.12 ± 0.41 nmol/mg of scales/hr

* * *

- Test system: osteoclasts
- TEST: Assay of influences on osteoclasts: tartaric acid-resistant acid phosphatase (TRAP) activity in cultured goldfish scales
- Type: cell-based
- MEASUREMENT CONTEXT: indole derivative 10^−6 M; scales cultured at 15° C. for 6 hours; control 3.43 ± 0.04
READOUT LABEL: TRAP activity, amount of paranitrophenol produced

# lookup: TRAP activity, amount of paranitrophenol produced of C#CCn1c(Br)c(CCNC(C)=O)c2c(Br)c(OC)c(Br)cc21 [2,4,6-Tribromo-1-propargylmelatonin]
2.82 ± 0.15 nmol/mg of scales/hr

Others:
# lookup: TRAP activity, amount of paranitrophenol produced of COc1ccc2[nH]c(Br)c(CCNC(C)=O)c2c1 [2-Bromomelatonin]
2.62 ± 0.17 nmol/mg of scales/hr

# lookup: TRAP activity, amount of paranitrophenol produced of C=CCn1c(Br)c(CCNC(C)=O)c2c(Br)c(OC)c(Br)cc21 [1-Allyl-2,4,6-tribromomelatonin]
2.89 ± 0.12 nmol/mg of scales/hr

# lookup: TRAP activity, amount of paranitrophenol produced of COc1c(Br)c(Br)c2[nH]c(Br)c(CCNC(C)=O)c2c1Br [2,4,6,7-Tetrabromomelatonin, 2,4,6,7-tetrabromomelatonin]
2.83 ± 0.16 nmol/mg of scales/hr

# lookup: TRAP activity, amount of paranitrophenol produced of COc1c(Br)cc2c(c1Br)c(CCNC(C)=O)c(Br)n2Cc1ccccc1 [1-Benzyl-2,4,6-tribromomelatonin]
2.83 ± 0.20 nmol/mg of scales/hr

# lookup: TRAP activity, amount of paranitrophenol produced of COc1c(Br)cc2[nH]c(Br)c(CCNC(C)=O)c2c1Br [2,4,6-Tribromomelatonin]
2.87 ± 0.13 nmol/mg of scales/hr

# lookup: TRAP activity, amount of paranitrophenol produced of COc1ccc2[nH]cc(CCNC(C)=O)c2c1 [Melatonin, N-acetyl-5-methoxytryptamine, reference compound]
2.69 ± 0.15 nmol/mg of scales/hr

* * *

Catalogue of TRAP activity, amount of paranitrophenol produced readings, one per entry.
- Test system: osteoclasts
- TEST: Assay of influences on osteoclasts: tartaric acid-resistant acid phosphatase (TRAP) activity in cultured goldfish scales
- Assay type: cell-based
- MEASUREMENT CONTEXT: indole derivative 10^−4 M; scales cultured at 15° C. for 6 hours; control 3.43 ± 0.04

These recorded examples may help you get a feel for the data.
# lookup: TRAP activity, amount of paranitrophenol produced of C#CCn1c(Br)c(CCNC(C)=O)c2c(Br)c(OC)c(Br)cc21
2.78 ± 0.13 nmol/mg of scales/hr

# lookup: TRAP activity, amount of paranitrophenol produced of C=CCn1c(Br)c(CCNC(C)=O)c2c(Br)c(OC)c(Br)cc21
2.87 ± 0.10 nmol/mg of scales/hr

# lookup: TRAP activity, amount of paranitrophenol produced of COc1c(Br)cc2c(c1Br)c(CCNC(C)=O)c(Br)n2Cc1ccccc1
2.59 ± 0.24 nmol/mg of scales/hr

# lookup: TRAP activity, amount of paranitrophenol produced of COc1c(Br)c(Br)c2[nH]c(Br)c(CCNC(C)=O)c2c1Br
2.71 ± 0.17 nmol/mg of scales/hr

Others:
# lookup: TRAP activity, amount of paranitrophenol produced of COc1ccc2[nH]c(Br)c(CCNC(C)=O)c2c1
2.83 ± 0.23 nmol/mg of scales/hr

# lookup: TRAP activity, amount of paranitrophenol produced of COc1ccc2[nH]cc(CCNC(C)=O)c2c1 [Melatonin, N-acetyl-5-methoxytryptamine, reference compound]
2.67 ± 0.11 nmol/mg of scales/hr

# lookup: TRAP activity, amount of paranitrophenol produced of COc1c(Br)cc2[nH]c(Br)c(CCNC(C)=O)c2c1Br
2.93 ± 0.18 nmol/mg of scales/hr
